Source listed as patent US20130324707A1.

- testDescription: Critical micelle concentration (CMC) by fluorescent dye uptake
- Type: physicochemical
quantityName: CMC (mM)

1) CCCCCCCC(=O)NCC(CNC(=O)CCCCC1CCCCC1)(COC1OC(CO)C(OC2OC(CO)C(O)C(O)C2O)C(O)C1O)COC1OC(CO)C(OC2OC(CO)C(O)C(O)C2O)C(O)C1O (centres unmarked)
0.18
2) CCCCCCCC(=O)NCC(CNC(=O)C(C1CCCCC1)C1CCCCC1)(COC1OC(CO)C(OC2OC(CO)C(O)C(O)C2O)C(O)C1O)COC1OC(CO)C(OC2OC(CO)C(O)C(O)C2O)C(O)C1O (centres unmarked)
0.24
3) CC(C)(C)C1CCC(C(=O)NCC(CNC(=O)C2CCC(C(C)(C)C)CC2)(COC2OC(CO)C(OC3OC(CO)C(O)C(O)C3O)C(O)C2O)COC2OC(CO)C(OC3OC(CO)C(O)C(O)C3O)C(O)C2O)CC1 (centres unmarked)
0.12
4) CCCCCCCCOCC(COCCCCCCCC)(COC1OC(CO)C(OC2OC(CO)C(O)C(O)C2O)C(O)C1O)COC1OC(CO)C(OC2OC(CO)C(O)C(O)C2O)C(O)C1O (centres unmarked)
0.034
5) CCCCCCCCCCCCCCCC(=O)NCC(CNC(=O)CCCCC)(COC1OC(CO)C(OC2OC(CO)C(O)C(O)C2O)C(O)C1O)COC1OC(CO)C(OC2OC(CO)C(O)C(O)C2O)C(O)C1O (centres unmarked)
0.023
6) CCCCCCCCCCCCC(=O)NCC(CNC(=O)CCCCCCCC)(COC1OC(CO)C(OC2OC(CO)C(O)C(O)C2O)C(O)C1O)COC1OC(CO)C(OC2OC(CO)C(O)C(O)C2O)C(O)C1O (centres unmarked)
0.02
7) CCCCCCCCCCCC(=O)NCC(CNC(=O)CCCCCCCCCCC)(COC1OC(CO)C(OC2OC(CO)C(O)C(O)C2O)C(O)C1O)COC1OC(CO)C(OC2OC(CO)C(O)C(O)C2O)C(O)C1O (centres unmarked)
0.008
8) CCCCCCCCCC(=O)NCC(CNC(=O)CCCCCCCCC)(COC1OC(CO)C(OC2OC(CO)C(O)C(O)C2O)C(O)C1O)COC1OC(CO)C(OC2OC(CO)C(O)C(O)C2O)C(O)C1O (centres unmarked)
0.043
9) O=C(Cc1cc(C(F)(F)F)cc(C(F)(F)F)c1)NCC(CNC(=O)Cc1cc(C(F)(F)F)cc(C(F)(F)F)c1)(COC1OC(CO)C(OC2OC(CO)C(O)C(O)C2O)C(O)C1O)COC1OC(CO)C(OC2OC(CO)C(O)C(O)C2O)C(O)C1O (centres unmarked)
0.9
10) O=C(CCCC1CCCCC1)NCC(CNC(=O)CCCC1CCCCC1)(COC1OC(CO)C(OC2OC(CO)C(O)C(O)C2O)C(O)C1O)COC1OC(CO)C(OC2OC(CO)C(O)C(O)C2O)C(O)C1O (centres unmarked)
0.39
11) CCCCCCOCC(COCCCCCC)(COC1OC(CO)C(O)C(O)C1O)COC1OC(CO)C(O)C(O)C1O (centres unmarked)
1.55
12) O=C(NCC(CNC(=O)C1CCCC1)(COC1OC(CO)C(O)C(O)C1O)COC1OC(CO)C(O)C(O)C1O)C1CCCC1 (centres unmarked)
72
13) OCC1OC(OCC(COC2OC(CO)C(O)C(O)C2O)(CSC2CCCCC2)CSC2CCCCC2)C(O)C(O)C1O (centres unmarked)
2.1
14) CCCCCCCCCCCCCCC(=O)NCC(CNC(=O)CCCCCC)(COC1OC(CO)C(OC2OC(CO)C(O)C(O)C2O)C(O)C1O)COC1OC(CO)C(OC2OC(CO)C(O)C(O)C2O)C(O)C1O (centres unmarked)
0.024
15) O=C(CCc1cc(C(F)(F)F)cc(C(F)(F)F)c1)NCC(CNC(=O)CCc1cc(C(F)(F)F)cc(C(F)(F)F)c1)(COC1OC(CO)C(OC2OC(CO)C(O)C(O)C2O)C(O)C1O)COC1OC(CO)C(OC2OC(CO)C(O)C(O)C2O)C(O)C1O (centres unmarked)
0.84
16) CCCCCCCCCCOCC(COCCCCCCCCCC)(CO[C@H]1OC(CO)[C@H](O[C@@H]2OC(CO)[C@H](O)C(O)[C@H]2O)C(O)[C@H]1O)CO[C@H]1OC(CO)[C@H](O[C@@H]2OC(CO)[C@H](O)C(O)[C@H]2O)C(O)[C@H]1O (some centres unmarked)
0.009
17) CCCCCCCC(CCCCCCC)(COC1OC(CO)C(O)C(O)C1O)COC1OC(CO)C(O)C(O)C1O (centres unmarked)
0.11
18) O=C(CCCCC1CCCCC1)NCC(CNC(=O)CCCCC1CCCCC1)(COC1OC(CO)C(OC2OC(CO)C(O)C(O)C2O)C(O)C1O)COC1OC(CO)C(OC2OC(CO)C(O)C(O)C2O)C(O)C1O (centres unmarked)
0.053
19) OCC1OC(OCC(COC2OC(CO)C(O)C(O)C2O)(CSCCc2ccccc2)CSCCc2ccccc2)C(O)C(O)C1O (centres unmarked)
0.82
20) CCCCC(CCCC)OCC(COC(CCCC)CCCC)(COC1OC(CO)C(OC2OC(CO)C(O)C(O)C2O)C(O)C1O)COC1OC(CO)C(OC2OC(CO)C(O)C(O)C2O)C(O)C1O (centres unmarked)
0.092
